TARGET_UNDER_TEST: RET V804L (Homo sapiens (Human), UniProt P07949, V804L)
Sequence (P07949 658-1114 V804L): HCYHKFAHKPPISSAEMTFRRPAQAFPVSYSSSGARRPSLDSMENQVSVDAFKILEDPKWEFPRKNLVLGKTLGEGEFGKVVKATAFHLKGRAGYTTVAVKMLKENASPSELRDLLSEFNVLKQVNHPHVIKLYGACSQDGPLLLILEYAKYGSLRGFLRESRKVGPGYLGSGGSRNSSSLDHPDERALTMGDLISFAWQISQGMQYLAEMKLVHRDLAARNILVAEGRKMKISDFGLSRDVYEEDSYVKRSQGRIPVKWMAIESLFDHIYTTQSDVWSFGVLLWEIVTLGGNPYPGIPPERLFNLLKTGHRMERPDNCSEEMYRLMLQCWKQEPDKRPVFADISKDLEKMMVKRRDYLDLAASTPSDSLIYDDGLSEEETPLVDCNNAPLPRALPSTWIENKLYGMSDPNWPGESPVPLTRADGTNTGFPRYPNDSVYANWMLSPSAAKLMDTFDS
ASSAY_SUMMARY: RET V804L Gatekeeper Mutant Assay at KM (Caliper electrophoretic mobility shift)
Type: biochemical
MEASUREMENT_CONTEXT: 10 μM ATP, 25° C., 120 minutes
OBSERVABLE: IC50

[
  {
    "CHEMICAL_SMILES": "CO[C@]1(C(=O)N[C@@H](C)c2ccc(-n3cc(F)cn3)nc2)CC[C@@](O)(c2cc(C)cc(Nc3cc(C)[nH]n3)n2)CC1",
    "TARGET_UNDER_TEST": "RET V804L (Homo sapiens (Human), UniProt P07949, V804L)",
    "IC50": "< 10 nM"
  },
  {
    "CHEMICAL_SMILES": "Cc1cc(Nc2cc(C)[nH]n2)nc([C@@H]2CC[C@@H](C(=O)NCc3ccc(-n4cccn4)nc3)[C@@H](C)C2)n1",
    "TARGET_UNDER_TEST": "RET V804L (Homo sapiens (Human), UniProt P07949, V804L)",
    "IC50": "> 100 nM"
  },
  {
    "CHEMICAL_SMILES": "CO[C@]1(C(=O)N[C@@H](C)c2cnc(-n3cc(F)cn3)cn2)CC[C@H](c2nc(C)cc(Nc3cc(C)[nH]n3)n2)CC1",
    "TARGET_UNDER_TEST": "RET V804L (Homo sapiens (Human), UniProt P07949, V804L)",
    "IC50": "< 10 nM"
  },
  {
    "CHEMICAL_SMILES": "Cc1cc(Nc2cc(C)[nH]n2)nc([C@@H]2CC[C@@H](C(=O)N[C@@H](C)c3ccc(-n4cc(F)cn4)nc3)[C@@H](C)C2)n1",
    "TARGET_UNDER_TEST": "RET V804L (Homo sapiens (Human), UniProt P07949, V804L)",
    "IC50": "10 to 100 nM"
  },
  {
    "CHEMICAL_SMILES": "Cc1cc(Nc2cc(C)[nH]n2)nc([C@]2(O)CC[C@H](C(=O)N[C@@H](C)c3ccc(-n4cc(F)cn4)nc3)CC2)c1",
    "TARGET_UNDER_TEST": "RET V804L (Homo sapiens (Human), UniProt P07949, V804L)",
    "IC50": "> 100 nM"
  }
]

Task: Let me know recorded IC50 for Cc1cc(Nc2cc(C)[nH]n2)nc([C@H]2CC[C@@H](C(=O)N[C@@H](C)c3ccc(-n4cccn4)nc3)CC2)n1 , thanks.
Result: > 100 nM
